test system: solid phase T4 specific antibody; assay: Binding of labelled T4 derivatives to solid phase T4 antibody with and without thiomersal (Example 7); design: species or system sheep; settings: Thiomersal absent; 125I-labelled T4 derivative
# reported % of T4 derivative bound to antibody; entries follow
Enter your answer as a number in %; do not include the unit.

N[C@@H](Cc1cc(I)c(Oc2cc(I)c(O)c(I)c2)c(I)c1)C(=O)O [L-T4, thyroxine, reference compound] | 12
CC(=O)N[C@@H](Cc1cc(I)c(Oc2cc(I)c(O)c(I)c2)c(I)c1)C(=O)N(C)C [L-T4/M, N-Acetyl-L-T4-dimethylamide] | 50
COC(=O)[C@H](Cc1cc(I)c(Oc2cc(I)c(O)c(I)c2)c(I)c1)NC(C)=O | 36
CC(=O)N[C@@H](Cc1cc(I)c(Oc2cc(I)c(O)c(I)c2)c(I)c1)C(=O)O | 22
CCNC(=O)[C@H](Cc1cc(I)c(Oc2cc(I)c(O)c(I)c2)c(I)c1)NC(C)=O [L-T4/L, N-Acetyl-L-T4-monoethylamide] | 21
N[C@H](Cc1cc(I)c(Oc2cc(I)c(O)c(I)c2)c(I)c1)C(=O)O | 24

Field: next compound
# return recorded % of T4 derivative bound to antibody for entry COC(=O)[C@@H](Cc1cc(I)c(Oc2cc(I)c(O)c(I)c2)c(I)c1)NC(C)=O
38
